B1: HDV Ribozyme (parent)
chain: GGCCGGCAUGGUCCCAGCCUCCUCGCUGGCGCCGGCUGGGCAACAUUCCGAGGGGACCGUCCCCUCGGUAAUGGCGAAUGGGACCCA

Variants of: B1
assay remarks: self-cleavage, relative activity (ratio to wild type); higher = more cleavage; co-transcriptional
Recorded self-cleavage determines the label; the label ranges are Low (below 0.2), Mid (0.2 to below 0.6), High (0.6 or more)

The examples below pair each entry with its known result.
- residue change: "G34U A83G"
  assigned label: "Low"
- residue change: "C13G A71C"
  assigned label: "Low"
- residue change: "U69A C86A"
  assigned label: "High"
- residue change: "C7U A51G"
  assigned label: "High"
- residue change: "C44G A83C"
  assigned label: "Mid"
- residue change: "A16U C84G"
  assigned label: "High"

Ask: Dear colleague, I would appreciate it if you could identify the bin for U65A C75G and reply at your convenience.
Result: Low

Ask: Dear colleague, I would appreciate it if you could identify the bin for C24G A87C and reply at your convenience.
Result: Low

Ask: Dear colleague, I would appreciate it if you could identify the bin for C26G U37A and reply at your convenience.
Result: Mid

Ask: Dear colleague, I would appreciate it if you could identify the bin for G17U G73U and reply at your convenience.
Result: Mid

Ask: Dear colleague, I would appreciate it if you could identify the bin for G34U G67A and reply at your convenience.
Result: Low

Ask: Dear colleague, I would appreciate it if you could identify the bin for C33U U60G and reply at your convenience.
Result: High

Ask: Dear colleague, I would appreciate it if you could identify the bin for C19G C57A and reply at your convenience.
Result: Low

Ask: Dear colleague, I would appreciate it if you could identify the bin for G29A G38U and reply at your convenience.
Result: Low

Ask: Dear colleague, I would appreciate it if you could identify the bin for G39U C41U and reply at your convenience.
Result: High
